List of combination Emax values.
- Tested on: RS4-11 (B-Lymphoblastic Leukemia)
- assay.protocol: combination Emax (second highest fraction inhibited in the dose matrix, 72 h); higher = more inhibition; extreme values may be limits of the assay
When you answer, write just the number.

# example entries with known answers
1) Cn1cnc2c(F)c(Nc3ccc(Br)cc3Cl)c(C(=O)NOCCO)cc21 [Selumetinib] + CC(C)n1c(=O)n(C)c2cnc3cc(F)c(-c4ccc(OCCCN5CCCCC5)nc4)cc3c21 [AZD1390] (first compound max 10 µM, 7x7, partner max 0.3 µM)
0.0431
2) NC1(C(=O)N[C@@H](CCO)c2ccc(Cl)cc2)CCN(c2ncnc3[nH]ccc23)CC1 [Capivasertib] + COc1nnc2ccc(N3CCC(c4ccc(OCCN5CCN(C)C(=O)[C@H]5C)cc4)CC3)nn12 [AZD5153] (first compound max 10 µM, 7x7, partner max 1 µM)
0.867
3) Cc1c2c(nn1C)CSCc1cc(n(C)n1)CSc1cc(c3ccccc3c1)OCCCc1c(C(=O)O)n(C)c3c-2c(Cl)ccc13 [AZD5991] + CCN(CCO)CCCOc1ccc2c(Nc3cc(CC(=O)Nc4cccc(F)c4)[nH]n3)ncnc2c1 [AZD2811] (first compound max 1 µM, 7x7, partner max 1 µM)
0.991

Moving on to the next molecule.
Kindly note the recorded combination Emax for Cc1c2c(nn1C)CSCc1cc(n(C)n1)CSc1cc(c3ccccc3c1)OCCCc1c(C(=O)O)n(C)c3c-2c(Cl)ccc13 [AZD5991] + C1CN(CCC1(C(=O)N[C@@H](CCO)C2=CC=C(C=C2)Cl)N)C3=NC=NC4=C3C=CN4 [Capivasertib] (first compound max 1 µM, 7x7, partner max 3 µM) , which is 0.519

====

- System: NCI-H1048 (Small Cell Lung Carcinoma);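 note: after 72 h of two-drug dosing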
- assay.protocol: Bliss excess, mean over the matrix (fraction); higher = more synergy
reported.metric: Bliss excess
When you answer, write just the number.

# example entries with known answers
1. C[C@@H](c1ccc2nccn2c1)n1nnc2ncc(-c3cnn(C)c3)nc21 [Savolitinib] + Cc1c2c(nn1C)CSCc1cc(n(C)n1)CSc1cc(c3ccccc3c1)OCCCc1c(C(=O)O)n(C)c3c-2c(Cl)ccc13 [AZD5991] (first compound max 1 µM, 7x7, partner max 1 µM)
0.0012
2. CC1(C)CCC(CN2CCN(c3ccc(C(=O)NS(=O)(=O)c4ccc(NCC5CCOCC5)c([N+](=O)[O-])c4)c(Oc4cnc5[nH]ccc5c4)c3)CC2)=C(c2ccc(Cl)cc2)C1 [Venetoclax] + C=CCn1c(=O)c2cnc(Nc3ccc(N4CCN(C)CC4)cc3)nc2n1-c1cccc(C(C)(C)O)n1 [AZD1775] (first compound max 1 µM, partner max 1 µM)
0.0212
3. Cc1nc(Nc2ncc(C(=O)Nc3c(C)cccc3Cl)s2)cc(N2CCN(CCO)CC2)n1 [Dasatinib] + CC(=O)Nc1cccc(-n2c(=O)n(C3CC3)c(=O)c3c(Nc4ccc(I)cc4F)n(C)c(=O)c(C)c32)c1 [Trametinib] (first compound max 2 µM, 7x7, partner max 1 µM)
-0.0669
4. COc1cc2c(cc1OCCCCCOc1cc3c(cc1OC)C(=O)N1C=C(C)C[C@H]1C=N3)N=C[C@@H]1CC(C)=CN1C2=O [SG3199] + O=C(c1cc(Cc2n[nH]c(=O)c3ccccc23)ccc1F)N1CCN(C(=O)C2CC2)CC1 [Olaparib] (first compound max 0.001 µM, 7x7, partner max 10 µM)
-0.0432
5. CC1(C)CCC(CN2CCN(c3ccc(C(=O)NS(=O)(=O)c4ccc(NCC5CCOCC5)c([N+](=O)[O-])c4)c(Oc4cnc5[nH]ccc5c4)c3)CC2)=C(c2ccc(Cl)cc2)C1 [Venetoclax] + C1CN(CCC1(C(=O)N[C@@H](CCO)C2=CC=C(C=C2)Cl)N)C3=NC=NC4=C3C=CN4 [Capivasertib] (first compound max 1 µM, 7x7, partner max 3 µM)
0.0124

Kindly note the recorded Bliss excess for CC1(C)CCC(CN2CCN(c3ccc(C(=O)NS(=O)(=O)c4ccc(NCC5CCOCC5)c([N+](=O)[O-])c4)c(Oc4cnc5[nH]ccc5c4)c3)CC2)=C(c2ccc(Cl)cc2)C1 [Venetoclax] + C[C@@H](Nc1cc(F)cc(F)c1)c1cc(C(=O)N(C)C)cc2c(=O)cc(N3CCOCC3)oc12 [AZD8186] (first compound max 1 µM, 7x7, partner max 3 µM) , which is 0.018

Kindly note the recorded Bliss excess for Cc1cc2ncnn2cc1Nc1ncc2c(n1)n(C1CCOCC1)c(=O)n2C [AZD7648] + CN(C)CCCOc1ccc(-c2ccc3ncc4c(c3c2)n(C2CCOCC2)c(=O)n4C)cn1 [AZD0156] (first compound max 10 µM, 7x7, partner max 1 µM) , which is 0.0121

Kindly note the recorded Bliss excess for Cc1c2c(nn1C)CSCc1cc(n(C)n1)CSc1cc(c3ccccc3c1)OCCCc1c(C(=O)O)n(C)c3c-2c(Cl)ccc13 [AZD5991] + C[C@@H]1COCCN1C2=NC(=NC(=C2)C3(CC3)[S@](=N)(=O)C)C4=C5C=CNC5=NC=C4 [AZD6738] (first compound max 1 µM, 7x7, partner max 10 µM) , which is 0.0445

Kindly note the recorded Bliss excess for CC(=O)c1c(C)c2cnc(Nc3ccc(N4CCNCC4)cn3)nc2n(C2CCCC2)c1=O [Palbociclib] + CC1(C)CCC(CN2CCN(c3ccc(C(=O)NS(=O)(=O)c4ccc(NCC5CCOCC5)c([N+](=O)[O-])c4)c(Oc4cnc5[nH]ccc5c4)c3)CC2)=C(c2ccc(Cl)cc2)C1 [Venetoclax] (first compound max 10 µM, 7x7, partner max 1 µM) , which is -0.0339

Kindly note the recorded Bliss excess for CN(CCO)CC[C@H](CSc1ccccc1)Nc1ccc(S(=O)(=O)NC(=O)c2ccc(N3CCC([C@@H](O)c4ccccc4-c4ccc(Cl)cc4)CC3)cc2)cc1S(=O)(=O)C(F)(F)F [AZD4320] + C[C@@H](Nc1cc(F)cc(F)c1)c1cc(C(=O)N(C)C)cc2c(=O)cc(N3CCOCC3)oc12 [AZD8186] (first compound max 1 µM, 7x7, partner max 3 µM) , which is 0.0388

Kindly note the recorded Bliss excess for CC1(C)CCC(CN2CCN(c3ccc(C(=O)NS(=O)(=O)c4ccc(NCC5CCOCC5)c([N+](=O)[O-])c4)c(Oc4cnc5[nH]ccc5c4)c3)CC2)=C(c2ccc(Cl)cc2)C1 [Venetoclax] + CN(C)CCCOc1ccc(-c2ccc3ncc4c(c3c2)n(C2CCOCC2)c(=O)n4C)cn1 [AZD0156] (first compound max 1 µM, 7x7, partner max 1 µM) , which is 0.0016

Kindly note the recorded Bliss excess for NC1(C(=O)N[C@@H](CCO)c2ccc(Cl)cc2)CCN(c2ncnc3[nH]ccc23)CC1 [Capivasertib] + CC(C)n1c(=O)n(C)c2cnc3cc(F)c(-c4ccc(OCCCN5CCCCC5)nc4)cc3c21 [AZD1390] (first compound max 10 µM, 7x7, partner max 0.3 µM) , which is -0.037
